# credit: PubChem BioAssay (NCI)

# test: NCI Yeast Anticancer Drug Screen. Data for the cln2 rad14 strain (AID 165);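 note: 0% = growth equal to vehicle treated cultures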
# conditions-used: S. cerevisiae cln2 rad14 strain, at 50.0 µM, stronger effect = higher value
The panel holds about 79,000 compounds, 15% with a hit somewhere; the sample as a whole holds those more often.
Catalogue of growth inhibition readings, one per entry.
Field format: number, assumed %, no unit text.

As a guide, the following entries are already answered.
{"molecule": "N#CN=CN1CCN(c2ccccc2)CC1", "growth inhibition [%]": -22.6}
{"molecule": "O=C1C=C(NCC(c2ccccc2)c2ccccc2)C(=O)c2ncccc21", "growth inhibition [%]": 34.9}
{"molecule": "O=C(c1ccccc1)C(O)(c1ccccc1)C(c1ccccc1)c1ccccc1 (stereo unspecified)", "growth inhibition [%]": 13}
{"molecule": "COC(=O)COc1ccc(Cl)cc1C(=O)O", "growth inhibition [%]": -11.8}
{"molecule": "O=[N+]([O-])c1ccc(S(=O)(=O)SC(F)(F)F)cc1", "growth inhibition [%]": -47.1}
{"molecule": "CC(=O)Oc1ccc2ccccc2c1CN(C(C)=O)c1ccc(C)cc1", "growth inhibition [%]": -19.4}
{"molecule": "O=c1cc2n(c(=O)n1Cc1ccccc1)CCC2", "growth inhibition [%]": 1.5}
{"molecule": "Cc1c([N+](=O)[O-])cc(C(=O)O)cc1[N+](=O)[O-]", "growth inhibition [%]": -7.4}

Which growth inhibition reading was recorded for the molecule Cc1cn(C2CC(OS(C)(=O)=O)C(COC(c3ccccc3)(c3ccccc3)c3ccccc3)O2)c(=O)[nH]c1=O (stereo unspecified) ? -15.2

----------
# test: NCI Yeast Anticancer Drug Screen. Data for the bub3 strain (AID 167)
# conditions-used: S. cerevisiae bub3 mutant strain, at 50.0 µM, stronger effect = higher value
About 79,000 compounds went through this panel and 15% of them were active in at least one assay; those are over-represented in the sample as a whole.
value-kind: growth inhibition (%)
Field format: number, assumed %, no unit text.

{"compound": "CCN(CC)C(=O)c1cccc2c1OCO2", "growth inhibition, %": 1.4}

Which growth inhibition reading was recorded for the compound COc1cccc(C2c3cc4c(cc3OC(N3CCCCC3)C2C)OCO4)c1O (configuration not stated) ? -2.5

Which growth inhibition reading was recorded for the compound CC1(C)C(O)C(C)(C)C1O (configuration not stated) ? 11.2

Which growth inhibition reading was recorded for the compound CO[Si](C)(C)OC ? -6.15

Which growth inhibition reading was recorded for the compound CCOC(=O)N1c2ccccc2SC1C#N (configuration not stated) ? 25.1

Which growth inhibition reading was recorded for the compound CN(C)C(=O)Nc1cccc(OS(=O)(=O)N(C)C)c1 ? 22.9

Which growth inhibition reading was recorded for the compound NC(=O)Cc1c(F)c(F)c(F)c(F)c1F ? 28.8

Which growth inhibition reading was recorded for the compound CN(C)c1ccc2c(SCC(=O)OCC(=O)C3(O)CCC4C5CCC6=CC(=O)C=CC6(C)C5C(O)CC43C)c3ccc(N(C)C)cc3nc2c1 (configuration not stated) ? 42.2

Which growth inhibition reading was recorded for the compound Cc1onc(-c2ccccc2)c1C(=O)N1CCCN2C(=O)c3ccccc3C21 (configuration not stated) ? 22.3

Which growth inhibition reading was recorded for the compound O=C(Nc1ccccc1C(=O)N/N=C/c1cccc(O)c1)c1ccccc1 ? 34.5

Which growth inhibition reading was recorded for the compound COc1ccc(CCNc2ncc([N+](=O)[O-])cc2N)cc1OC ? 6.25

Which growth inhibition reading was recorded for the compound Cn1cnc2cc(N3CCOCC3)c([N+](=O)[O-])cc2c1=O ? -1.9

----------
Catalogue of growth inhibition readings, one per entry.
# test: NCI Yeast Anticancer Drug Screen. Data for the mec2-1 strain (AID 157)
# conditions-used: S. cerevisiae mec2-1 strain, at 50.0 µM, stronger effect = higher value
About 79,000 compounds went through this panel and 15% of them were active in at least one assay; those are over-represented in the sample as a whole.
Field format: number, assumed %, no unit text.

As a guide, the following entries are already answered.
{"molecule": "COc1ccc(CSc2n[nH]c(=O)[nH]c2=S)cc1", "value-kind": "growth inhibition", "data-value": -4.45}
{"molecule": "CCC(O)C(C)[N+](=O)[O-] (stereo not drawn)", "value-kind": "growth inhibition", "data-value": -1.85}
{"molecule": "CCOC(=O)/C(=C/c1cc(OC)ccc1OC)P(=O)(OCC)OCC", "value-kind": "growth inhibition", "data-value": -12.9}
{"molecule": "COc1ccc2nc3cc(Cl)ccc3c(NCCNCC(C)(C)O)c2c1", "value-kind": "growth inhibition", "data-value": 15.8}
{"molecule": "CC(=O)OCC1CCCCO1 (stereo not drawn)", "value-kind": "growth inhibition", "data-value": -1.65}
{"molecule": "Cc1cc(C=O)c(C)[nH]1", "value-kind": "growth inhibition", "data-value": -3.55}
{"molecule": "CC(C)(C[NH-])C[NH-].[Cl][Pt+2][Cl]", "value-kind": "growth inhibition", "data-value": 13.3}
{"molecule": "CC(=O)Nc1cc2c(cc1[N+](=O)[O-])-c1ccc([N+](=O)[O-])cc1C2=O", "value-kind": "growth inhibition", "data-value": 4.4}
{"molecule": "COc1ccc(-c2oc3ccc(C)cc3c(=O)c2O)cc1", "value-kind": "growth inhibition", "data-value": -8}
{"molecule": "c1ccc(CCOC(c2ccccc2)(c2ccccc2)c2ccccc2)cc1", "value-kind": "growth inhibition", "data-value": -9.25}

Which growth inhibition reading was recorded for the molecule CC(=O)CC(=O)NCCNC(=O)CC(C)=O ? -11.6

Which growth inhibition reading was recorded for the molecule CC(=O)Nc1ccccc1N ? 14.9

Which growth inhibition reading was recorded for the molecule Cc1ccc(S(=O)(=O)N2CCCSCCN(S(=O)(=O)c3ccc(C)cc3)CCCSCC2)cc1 ? -32.5

----------
# test: NCI Yeast Anticancer Drug Screen. Data for the cln2 rad14 strain (AID 165);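 note: 0% = growth equal to vehicle treated cultures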
# conditions-used: S. cerevisiae cln2 rad14 strain, at 50.0 µM, stronger effect = higher value
This is part of a sample that, as a whole, favours compounds with a hit. Of some 79,000 tested, about 15% had one in any assay.
value-kind: growth inhibition (%)
Field format: number, assumed %, no unit text.

As a guide, the following entries are already answered.
{"molecule": "C[N+]1(C)C2CCC1CC(OC(=O)C(O)c1ccccc1)C2 (stereo unspecified)", "data-value": -4.85}
{"molecule": "N#CC1CCN(Cc2ccccc2)C(C#N)C1 (stereo unspecified)", "data-value": -4.8}
{"molecule": "N#Cc1nc(C2=C(Cl)c3ccccc3OC2)[nH]c1C#N", "data-value": 56.5}
{"molecule": "COc1cc(OC)c(C(=O)c2ccccc2N)c(OC)c1", "data-value": 6.55}
{"molecule": "C=CCn1c(C23CC4CC(CC(C4)C2)C3)n[nH]c1=S", "data-value": 19.2}

Then there is this molecule:
Which growth inhibition reading was recorded for the molecule C/C(=N\N(C)C)c1sc(-n2nc(-c3ccccc3)cc2-c2ccccc2)nc1C ? -8

----------
# test: NCI Yeast Anticancer Drug Screen. Data for the mec2-1 strain (AID 157)
# conditions-used: S. cerevisiae mec2-1 strain, at 50.0 µM
About 79,000 compounds went through this panel and 15% of them were active in at least one assay; those are over-represented in the sample as a whole. The source made the active and inactive calls. No stated cut-off is given here; in the data, active means growth inhibition above about 70%; inactive means the rest.
Respond with a class label; see Yes for active, No for inactive

For orientation, consider the following solved cases.
{"compound": "O=C(/C(=N/O)c1ccc(Cl)cc1)c1ccccc1", "class-label": "Yes"}
{"compound": "COC1/C=C/OC2(C)Oc3c(C)c(O)c4c(O)c(c(/C=N/OC/C=C(\\C)CCC=C(C)C)c(O)c4c3C2=O)NC(=O)C(C)=C/C=C/C(C)C(O)C(C)C(O)C(C)C(OC(C)=O)C1C (stereo not given)", "class-label": "No"}
{"compound": "COC1OC(C(C)O)C(O)C(O)C1O (stereo not given)", "class-label": "No"}
{"compound": "CCN(CC)CN(CC)CC", "class-label": "No"}

Moving on to another compound below.
Please state the recorded outcome for this compound: N#Cc1c(-c2ccc(Cl)cc2)c2c(n(C3OC(CO)C(O)C(O)C3O)c1=S)CCC2 (stereo not given) No

----------
# test: NCI Yeast Anticancer Drug Screen. Data for the sgs1 mgt1 strain (AID 161);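 note: 0% = growth of cultures given vehicle only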
# conditions-used: S. cerevisiae sgs1 mgt1 strain, at 50.0 µM, stronger effect = higher value
This is part of a sample that, as a whole, favours compounds with a hit. Of some 79,000 tested, about 15% had one in any assay. Calls of active or inactive are those of the source. Cut-off read from the data, not from the text of the source: active = growth inhibition above about 70%; inactive = the rest.
Catalogue of growth inhibition readings, one per entry.

As a guide, the following entries are already answered.
{"molecule": "O=C(C[n+]1ccccc1)N/N=C(/CCC(=O)N(Cc1ccccc1)Cc1ccccc1)CC(=O)c1ccccc1", "growth inhibition": "-38% (inactive)"}
{"molecule": "COC(=O)c1ccccc1NC(=O)c1cccc(Cl)c1", "growth inhibition": "20.6% (inactive)"}
{"molecule": "O=C(O)COc1ccc(C2CCCCC2)cc1", "growth inhibition": "-7.65% (inactive)"}
{"molecule": "Cn1c(=S)[nH]c2sc3c(c2c1=O)CCCCC3", "growth inhibition": "8.25% (inactive)"}
{"molecule": "CCCCCCCCCCCC[Si](c1ccccc1)(c1ccccc1)c1ccccc1", "growth inhibition": "26.1% (inactive)"}

Which growth inhibition reading was recorded for the molecule CCC1(O)C(=O)Nc2ccccc2C1=O (configuration not stated) ? -17.3% (inactive)

Which growth inhibition reading was recorded for the molecule C(=C\c1ccccc1)/C=N/N=C/C=C/c1ccccc1 ? -10.9% (inactive)

Which growth inhibition reading was recorded for the molecule C=Cc1c2ccccc2cc2c1ccc1ccccc12 ? 93.5% (active)

Which growth inhibition reading was recorded for the molecule O=C(O)CCc1c[nH]c2ccccc12 ? 31.8% (inactive)

Which growth inhibition reading was recorded for the molecule CC[N+](C)(CC)C(Cc1ccccc1)c1ccccc1 (configuration not stated) ? 24.6% (inactive)

Which growth inhibition reading was recorded for the molecule CC1=Nc2c(ccc3c2C(=O)c2ccccc2C3=O)NC(c2ccncc2)C1 (configuration not stated) ? 47.6% (inactive)

Which growth inhibition reading was recorded for the molecule COc1ccc(C(=O)C[n+]2cc(Br)cc(Br)c2)cc1 ? -7% (inactive)

Which growth inhibition reading was recorded for the molecule C[N+](C)(C)c1cc2c(nn1)Nc1ccccc1S2 ? -2.75% (inactive)

Which growth inhibition reading was recorded for the molecule COc1ccc2c(c1)CC[C@@H]1[C@@H]2CC[C@@]2(C)[C@H]1C[C@@](C)(O)[C@H]2O ? -2.45% (inactive)

Which growth inhibition reading was recorded for the molecule COc1ccc(/C=C/C(=O)c2ccc(F)cc2)cc1 ? -12.4% (inactive)

Which growth inhibition reading was recorded for the molecule CCOC(=O)c1cc(=O)c2cccc(C)c2[nH]1 ? -0.95% (inactive)

Which growth inhibition reading was recorded for the molecule C#[N+]CCOP(=O)(OCC1OC(n2cc(C)c(=O)[nH]c2=O)CC1N=[N+]=[N-])O[C@H]1CC[C@@]2(C)C(=CC[C@H]3[C@@H]4CC[C@H](C(C)/C=C/C(CC)C(C)C)[C@@]4(C)CC[C@@H]32)C1 (some centres not stated) ? -23.1% (inactive)

Which growth inhibition reading was recorded for the molecule Nc1cc(=O)[nH]c(N2CCN(c3ccccc3)CC2)n1 ? -14.3% (inactive)

Which growth inhibition reading was recorded for the molecule FC(F)(F)c1cccc(CSCc2c(CSCc3cccc(C(F)(F)F)c3)c(CSCc3cccc(C(F)(F)F)c3)c(CSCc3cccc(C(F)(F)F)c3)c(CSCc3cccc(C(F)(F)F)c3)c2CSCc2cccc(C(F)(F)F)c2)c1 ? -6.35% (inactive)

Which growth inhibition reading was recorded for the molecule Cc1ccn2nnnc2c1 ? -1.2% (inactive)

Which growth inhibition reading was recorded for the molecule CCCCCOC(c1cc2c(cc1Br)OCO2)C(C)Br (configuration not stated) ? 10.8% (inactive)

Which growth inhibition reading was recorded for the molecule CC(N)C(C)Cc1ccccc1 (configuration not stated) ? -19.7% (inactive)
